molecular target: NACHT, LRR and PYD domains-containing protein 3 (Homo sapiens, UniProt Q96P20); assay: Evaluation of NLRP3 Inflammasome Inhibitory Activity Assay
Sequence (Q96P20 whole entry, the tested form may be a part): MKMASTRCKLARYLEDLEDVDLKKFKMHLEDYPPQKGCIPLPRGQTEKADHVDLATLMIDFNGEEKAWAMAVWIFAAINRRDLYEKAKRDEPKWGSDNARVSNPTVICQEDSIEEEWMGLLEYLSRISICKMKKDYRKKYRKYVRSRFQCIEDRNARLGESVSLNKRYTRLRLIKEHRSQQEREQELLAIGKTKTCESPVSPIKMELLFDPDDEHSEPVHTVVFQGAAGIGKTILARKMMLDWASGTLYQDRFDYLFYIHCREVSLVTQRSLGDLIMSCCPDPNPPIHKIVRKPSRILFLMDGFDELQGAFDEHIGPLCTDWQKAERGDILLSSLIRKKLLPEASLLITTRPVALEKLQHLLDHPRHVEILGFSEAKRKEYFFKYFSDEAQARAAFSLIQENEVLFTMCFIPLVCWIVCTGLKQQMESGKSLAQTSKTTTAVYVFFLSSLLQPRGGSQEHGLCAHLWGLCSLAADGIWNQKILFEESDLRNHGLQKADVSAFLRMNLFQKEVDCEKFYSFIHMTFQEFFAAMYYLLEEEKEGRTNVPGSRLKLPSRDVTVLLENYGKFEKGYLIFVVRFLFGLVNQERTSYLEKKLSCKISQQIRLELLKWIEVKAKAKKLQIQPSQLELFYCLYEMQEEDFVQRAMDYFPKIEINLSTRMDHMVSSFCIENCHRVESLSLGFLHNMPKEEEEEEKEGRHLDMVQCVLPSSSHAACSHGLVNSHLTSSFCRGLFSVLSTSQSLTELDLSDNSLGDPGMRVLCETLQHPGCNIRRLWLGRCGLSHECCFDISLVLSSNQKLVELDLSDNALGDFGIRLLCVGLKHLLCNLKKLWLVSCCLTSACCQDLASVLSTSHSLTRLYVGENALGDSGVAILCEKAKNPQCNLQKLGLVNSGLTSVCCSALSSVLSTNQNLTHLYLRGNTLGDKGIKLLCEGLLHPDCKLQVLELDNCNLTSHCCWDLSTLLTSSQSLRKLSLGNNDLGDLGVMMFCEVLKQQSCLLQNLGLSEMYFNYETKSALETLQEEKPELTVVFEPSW
Param label: returns y when IC50 < 30 nM, returns n otherwise, including exact equality.

| MOLECULE | QUALITATIVE LABEL |
| --- | --- |
| COC1COCCN(c2nc3nn(-c4c(C)cc(Br)cc4C)cc3c(=O)[nH]2)C1 (configuration not stated) | y |
| Cc1cc(Br)cc(C)c1-n1cc2c(=O)[nH]c(N3CCC4CC43)nc2n1 (configuration not stated) | y |
| Cc1cc(Br)cc(C)c1-n1cc2c(=O)[nH]c(N3CCOC4(COC4)C3)nc2n1 | n |
| Cc1cc(Br)cc(C)c1-n1cc2c(=O)[nH]c(N3CCO[C@@H](C)C3)nc2n1 | y |
| Cc1cc(Br)cc(C)c1-n1cc2c(=O)[nH]c(N3C4CCC3CC(F)(F)C4)nc2n1 | n |
| Cc1cc(Br)cc(C)c1-n1cc2c(=O)[nH]c(N3CC4(COC4)C3)nc2n1 | y |

====

pIC50: −log10 of the molar value.
List of pIC50 tested on NACHT, LRR and PYD domains-containing protein 3 (Homo sapiens, UniProt Q96P20).

| COMPOUND | pIC50 |
| --- | --- |
| CNc1nc2nn(-c3c(C)cc(Br)cc3C)cc2c(=O)n1C [US20240287079, Example 247] | 6.59 |
| Cc1cc(Br)cc(C)c1-n1cc2c(=O)[nH]c(N3CCOC4(CC4)C3)nc2n1 [US20240287079, Example 225] | 7.72 |
| Cc1cc(Br)cc(C)c1-n1cc2c(=O)[nH]c(N3CCOC[C@@H]3C)nc2n1 [US20240287079, Example 223] | 6.80 |
| COC1(C)CN(c2nc3nn(-c4c(C)cc(Br)cc4C)cc3c(=O)[nH]2)C1 [US20240287079, Example 203] | 7.57 |
| Cc1cc(Br)cc(C)c1-n1cc2c(=O)[nH]c(N3CC4CCC(C3)C4(F)F)nc2n1 [US20240287079, Example 239] | 7.96 |

Numbers sourced from BindingDB's records for patent US20240287079.
